B1: C8orf76 (parent)
chain: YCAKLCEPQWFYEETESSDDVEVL

Variants of: B1
experiment notes: protein stability index of a GFP-peptide fusion (GPS, HEK-293T) (PSI 1-6); higher = more stable;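 further: lentivirally expressed fusions sorted by FACS into six bins by GFP to DsRed ratio, PSI derived from sequencing read proportions per bin multiplied by bin number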
test parameters: c terminus: a fixed tail appended
reported metric: protein stability index

Example cases with answers are listed next.
YCAKLCEPQWFYEEDESSDDVEVL [T15D]	2.9
YCAKHCEPQWFYEETESSDDVEVL [L5H]	2.72
YCAKLCSPQWFYEETESSDDVEVL [E7S]	2.82
YCAKLCEPQWFYEETESSDDVELL [V23L]	2.05
YCAKLCEPQWFYEETESIDDVEVL [S18I]	1.88

Tell me the measured protein stability index of YCAKACEPQWFYEETESSDDVEVL [L5A] , please. 2.62

Tell me the measured protein stability index of YCAKLYEPQWFYEETESSDDVEVL [C6Y] , please. 2.29
